Data origin: the supplement of paper PMC10065799

test system: AncSZ; assay: phosphorylation enrichment, bacterial display (enrichment ratio); higher = better substrate or ligand; peptides without Tyr show the background;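 note: 11-residue human phosphosite peptides and single-mutation variants displayed on the E. coli surface, counted by deep sequencing, each peptide's frequency after selection divided by its frequency in the unselected input library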;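 note: frequency after pTyr selection over input frequency; kinase dosed for 20-30% of maximal phosphorylation in three min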
Label true (1) when phosphorylation enrichment is at or above 1; otherwise label false (0).

MONOMER_SEQUENCE: NTVDYYDLYGG [PTPN11_Y63_G60V]
LABEL: true (1)
//
MONOMER_SEQUENCE: ATLDVYNPFET [SCAMP3_Y41]
LABEL: true (1)
//
MONOMER_SEQUENCE: YDGKDYIALKE [HLA-A_Y147_N151K]
LABEL: true (1)
//
MONOMER_SEQUENCE: WKESWYSMRKM [FGB_Y475_G472E]
LABEL: true (1)
//
MONOMER_SEQUENCE: MFNPCYGLFEY [NEDD4L_Y680_Y679C]
LABEL: true (1)
//
MONOMER_SEQUENCE: VECHPYFTQPK [AKR1D1_Y199]
LABEL: false (0)
//
MONOMER_SEQUENCE: SVICTYSPALN [TP53_Y126_T123I]
LABEL: true (1)
//
MONOMER_SEQUENCE: GASWRYRSGVS [NEU1_Y242_G243R]
LABEL: false (0)
//
MONOMER_SEQUENCE: NPQKSYFICLY [WAS_Y83_R86C]
LABEL: true (1)
//
MONOMER_SEQUENCE: SSEYHYVGGFY [CTSC_Y347]
LABEL: true (1)
//
MONOMER_SEQUENCE: GAVDTYCRHNF [HLA-DRB1_Y107_A102G_YF]
LABEL: false (0)
//
MONOMER_SEQUENCE: RPSELYFSKIG [SMG1_Y2253_YF]
LABEL: false (0)
//
MONOMER_SEQUENCE: PTTKTYFRHFD [HBA1_Y43_P45R]
LABEL: false (0)
//
MONOMER_SEQUENCE: REGDKYVSHGA [ASS1_Y113_A111D]
LABEL: false (0)
//
MONOMER_SEQUENCE: HNLDFYKQTTN [FGFR3_Y648_K650Q_YF]
LABEL: false (0)
//
MONOMER_SEQUENCE: YGCGMYSHLQG [LGR4_Y848_D844G]
LABEL: true (1)
//
MONOMER_SEQUENCE: VKPENYRRLDV [VHL_Y175_I180V]
LABEL: false (0)
//
MONOMER_SEQUENCE: VAMELYVFGGV [GAN_Y471]
LABEL: true (1)
//
MONOMER_SEQUENCE: HKLSSYEYDFE [BTK_Y40_Y39S]
LABEL: true (1)
//
MONOMER_SEQUENCE: QTWKTYVRQQQ [SFI1_Y164]
LABEL: false (0)
//
MONOMER_SEQUENCE: DSNPIYSQIWS [FCRL3_Y662]
LABEL: true (1)
//
MONOMER_SEQUENCE: FLEEEYVKAVG [TF_Y674_G671E_YF]
LABEL: true (1)
//
MONOMER_SEQUENCE: YADPYYDYEIE [ZC3H18_Y372]
LABEL: true (1)
//
MONOMER_SEQUENCE: SGDDGYAKDAK [TENM4_Y1530]
LABEL: false (0)
//
MONOMER_SEQUENCE: HHTNEYEFDEL [TGM1_Y134_D132N_YF]
LABEL: true (1)
//
MONOMER_SEQUENCE: FKDGQYWIRGR [ACSF3_Y466]
LABEL: false (0)
//
MONOMER_SEQUENCE: TGDVQYRSSVR [FREM2_Y2158]
LABEL: false (0)
//
MONOMER_SEQUENCE: MSRDVYSTDYY [NTRK2_Y702]
LABEL: true (1)
//
MONOMER_SEQUENCE: GSRGKYSSGFH [ATM_Y332_R337H]
LABEL: false (0)
//
MONOMER_SEQUENCE: LHAALYKRKLL [TTLL5_Y542_E543K]
LABEL: false (0)
//
MONOMER_SEQUENCE: KLKRSYSSPDI [USP8_Y717]
LABEL: false (0)
//
MONOMER_SEQUENCE: YYHCTYKKRMI [CLEC12A_Y242]
LABEL: true (1)
//
MONOMER_SEQUENCE: LLVVLCKYRCY [PSEN1_Y154_Y154C]
LABEL: false (0)
//
MONOMER_SEQUENCE: KASRKYYAMKI [AKT3_Y173_G171R]
LABEL: false (0)
//
MONOMER_SEQUENCE: TGILLYGLASR [QARS1_Y57]
LABEL: false (0)
//
MONOMER_SEQUENCE: DLVRPYVHKIL [SF3B1_Y570]
LABEL: false (0)
//
MONOMER_SEQUENCE: RDMMDYMPQGV [CYP21A2_Y259_L261P]
LABEL: true (1)
//
MONOMER_SEQUENCE: MSSLPYMKVIF [SLC4A11_Y853_M856V]
LABEL: false (0)
//
MONOMER_SEQUENCE: TNEFEYDELIV [TGM1_Y136_D132N_YF]
LABEL: true (1)
//
MONOMER_SEQUENCE: IRSGIYYKPES [L2HGDH_Y102_H98R]
LABEL: false (0)
//
MONOMER_SEQUENCE: PSDSGYSFETI [MAP1B_Y1921_YF]
LABEL: true (1)
//
MONOMER_SEQUENCE: DFLSSYSAVNQ [OAT_Y85]
LABEL: true (1)
//
MONOMER_SEQUENCE: ERLWVYGMSSS [F8_Y1728_D1727V]
LABEL: true (1)
//
MONOMER_SEQUENCE: QLDQHYLLVPE [DDX49_Y223_R222H]
LABEL: true (1)
//
MONOMER_SEQUENCE: ENAGFYFRVSA
LABEL: true (1)
//
MONOMER_SEQUENCE: TDKLFYIYTPG [SLC27A4_Y243_S247P]
LABEL: true (1)
//
MONOMER_SEQUENCE: TENAGYYFRVS
LABEL: true (1)
//
MONOMER_SEQUENCE: GSCQEYTGAPF [NAXD_Y85_G81S_YF]
LABEL: true (1)
//
MONOMER_SEQUENCE: KVMANYVFKAG [MAML2_Y513_M514V_YF]
LABEL: false (0)
//
MONOMER_SEQUENCE: TSNNPYFRDQA [RPGRIP1_Y846_A841T]
LABEL: false (0)
//
MONOMER_SEQUENCE: KQINDYVEKGT [SERPINA1_Y184]
LABEL: false (0)
//
MONOMER_SEQUENCE: HNELYYEAAEH [VANGL1_Y345_E347A]
LABEL: true (1)
//
MONOMER_SEQUENCE: TPLSAYQIPRT [GAB2_Y324]
LABEL: false (0)
//
MONOMER_SEQUENCE: MSIWPYLQKID [MFSD8_Y63]
LABEL: false (0)

----------
target: FGFR3 (UniProt P22607); test: phosphorylation enrichment, bacterial display (enrichment ratio); higher = better substrate or ligand; peptides without Tyr show the background
Sequence (P22607 whole entry, looked up): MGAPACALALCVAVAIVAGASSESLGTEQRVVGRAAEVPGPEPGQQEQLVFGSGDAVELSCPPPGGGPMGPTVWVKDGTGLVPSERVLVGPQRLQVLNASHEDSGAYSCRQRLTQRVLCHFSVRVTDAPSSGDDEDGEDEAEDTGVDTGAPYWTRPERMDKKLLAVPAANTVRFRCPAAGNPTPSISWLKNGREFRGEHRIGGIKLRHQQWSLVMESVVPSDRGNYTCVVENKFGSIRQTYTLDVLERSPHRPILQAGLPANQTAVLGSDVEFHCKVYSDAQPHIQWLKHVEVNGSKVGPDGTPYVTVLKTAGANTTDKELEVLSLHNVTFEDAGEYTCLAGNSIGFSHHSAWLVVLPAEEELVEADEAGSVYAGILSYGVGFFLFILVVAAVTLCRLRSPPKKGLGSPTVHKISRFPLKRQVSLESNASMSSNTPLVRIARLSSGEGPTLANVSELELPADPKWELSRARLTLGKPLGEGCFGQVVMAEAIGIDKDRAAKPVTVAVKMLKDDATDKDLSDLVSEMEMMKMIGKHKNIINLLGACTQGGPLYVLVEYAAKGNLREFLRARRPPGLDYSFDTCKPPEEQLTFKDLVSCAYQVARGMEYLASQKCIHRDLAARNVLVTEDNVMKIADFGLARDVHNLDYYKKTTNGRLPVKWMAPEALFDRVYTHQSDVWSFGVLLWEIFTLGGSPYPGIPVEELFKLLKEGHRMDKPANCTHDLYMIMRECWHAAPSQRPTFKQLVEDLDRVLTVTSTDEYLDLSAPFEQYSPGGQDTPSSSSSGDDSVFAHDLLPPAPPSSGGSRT

MONOMER_SEQUENCE: RPYVYYYSYLL [PTEN_Y177_R173P]
TARGET_DESC: FGFR3 (UniProt P22607)
phosphorylation enrichment: 4.57
//
MONOMER_SEQUENCE: YKGKKYKPLDL [RPL35_Y78]
TARGET_DESC: FGFR3 (UniProt P22607)
phosphorylation enrichment: 0.45
//
MONOMER_SEQUENCE: DGTESYLTVSS [PLK1_Y462]
TARGET_DESC: FGFR3 (UniProt P22607)
phosphorylation enrichment: 0.59
//
MONOMER_SEQUENCE: YPKARYRWLVL [APTX_Y214_H215R]
TARGET_DESC: FGFR3 (UniProt P22607)
phosphorylation enrichment: 0.492
//
MONOMER_SEQUENCE: RLLRGYDQSAY [HLA-C_Y137]
TARGET_DESC: FGFR3 (UniProt P22607)
phosphorylation enrichment: 0.593
//
MONOMER_SEQUENCE: SGETKYNPTEA [NBEAL2_Y2748_E2747K]
TARGET_DESC: FGFR3 (UniProt P22607)
phosphorylation enrichment: 0.594
//
MONOMER_SEQUENCE: RAFSWYQHQRA [NDST1_Y714_YF]
TARGET_DESC: FGFR3 (UniProt P22607)
phosphorylation enrichment: 1
//
MONOMER_SEQUENCE: PSDSGYSYETI [MAP1B_Y1921]
TARGET_DESC: FGFR3 (UniProt P22607)
phosphorylation enrichment: 0.688
//
MONOMER_SEQUENCE: GHLYAYNWISI [BEST1_Y227_D228N]
TARGET_DESC: FGFR3 (UniProt P22607)
phosphorylation enrichment: 2.83
//
MONOMER_SEQUENCE: DWWQEYVLNES [TGM1_Y267_R264W]
TARGET_DESC: FGFR3 (UniProt P22607)
phosphorylation enrichment: 0.97
//
MONOMER_SEQUENCE: GPQSLYNGLVA [UCP2_Y79_R76Q]
TARGET_DESC: FGFR3 (UniProt P22607)
phosphorylation enrichment: 0.515
//
MONOMER_SEQUENCE: SGEKPYKCSEC [ZNF543_Y283]
TARGET_DESC: FGFR3 (UniProt P22607)
phosphorylation enrichment: 0.551
//
MONOMER_SEQUENCE: FSSLGYPLPEG [ZSWIM4_Y87_P89L_YF]
TARGET_DESC: FGFR3 (UniProt P22607)
phosphorylation enrichment: 0.472
//
MONOMER_SEQUENCE: ILGRYYETGSI [PAX2_Y73]
TARGET_DESC: FGFR3 (UniProt P22607)
phosphorylation enrichment: 0.834
